Tested on: CP260
Assay: qHTS profiling for inhibitors of Plasmodium falciparum proliferation (AID 504749); note: nearly all actives have a fitted effect of over 60% in size
Conditions: P. falciparum in erythrocytes, SYBR Green DNA, 72 h; series mostly up to 28.7 µM
Method: NIH National Institute of Allergy and Infectious Diseases [NIAID] NIH Chemical Genomics Center [NCGC] […] Because mature erythrocytes lack DNA, only Plasmodium-derived DNA is detected. NCGC Assay Protocol Summary: The SYBR Green viability assay was adapted from a method described previously (Plouffe et al., 2008). […] The following morning, fluorescence intensity at 485(14) nm excitation and 535(25) nm emission wavelengths was measured on an EnVision (Perkin Elmer) plate reader. […]
Records with an inconclusive call do not appear. Calls of active or inactive are those of the source. Calls come from the whole dose curve; as a rule, active = well fitted inhibition curve with a large enough effect; inconclusive = small, poorly fitted or top-dose-only effect; inactive = flat fitted curve, though single readings scatter.
Outcome field: choose from TRUE (active), FALSE (inactive)

CN(Cc1cnc2nc(N)nc(N)c2n1)c1ccc(C(=O)N[C@@H](CCC(=O)O)C(=O)O)cc1
TRUE
CS(=O)(=O)Nc1ccc([N+](=O)[O-])cc1Oc1ccccc1
FALSE
Cc1cn([C@H]2C=C[C@@H](CO)O2)c(=O)[nH]c1=O
FALSE
COc1ccccc1N1CCN(CC(O)COc2cccc3ccccc23)CC1 (stereo unspecified)
FALSE
COc1ccccc1OCC(O)CN1CCN(CC(=O)Nc2c(C)cccc2C)CC1 (stereo unspecified)
FALSE
CN(C)CCOC(c1ccccc1)c1ccccc1
TRUE
CC(C)(Oc1ccc(C2CC2(Cl)Cl)cc1)C(=O)O (stereo unspecified)
FALSE
O=C(c1ccc(OCCN2CCCCC2)cc1)c1c(-c2ccc(O)cc2)sc2cc(O)ccc12
TRUE
O=C(Nc1ccc([N+](=O)[O-])cc1Cl)c1cc(Cl)ccc1O
TRUE
Clc1ccccc1C(c1ccccc1)(c1ccccc1)n1ccnc1
TRUE

Below: the item to evaluate.
Would you mind telling me which call this test gave COc1cc2c(c(OC)c1OC)-c1ccc(OC)c(=O)cc1[C@@H](NC(C)=O)CC2 ? FALSE

====

Test: Nrf2 qHTS screen for inhibitors: Validation (AID 493153)
Conditions: A549 ARE-Fluc reporter, 18-24 h; measured here: cytotoxicity max response
Inconclusive results are not listed.
Reported Metric: viability change (%)
Field format: number, assumed %, no unit text.

CCN1CCCC1CNC(=O)c1cc(S(=O)(=O)CC)c(N)cc1OC (stereo not given)
7.74

For O=C1Cc2cc(CCN3CCN(c4nsc5ccccc45)CC3)c(Cl)cc2N1 , what is its reported viability change? -17.6

What value of viability change has been reported for the following compound? Cc1cc(C(C)(C)C)cc(C)c1CC1=NCCN1 1.17

Sample O=C(CCCN1CCC(O)(c2ccc(Cl)cc2)CC1)c1ccc(F)cc1 — what was its viability change? 2.46

What does the record list as viability change for CN1CCC(=C2c3ccccc3CC(=O)c3sccc32)CC1 ? -3.17

Please give the measured viability change for this compound: CN1CCC(=C2c3ccccc3C=Cc3ccccc32)CC1 17

====

Assay: qHTS of pediatric cancer cell lines to identify multiple opportunities for drug repurposing: Primary screen for BT-37 cells (AID 1347094)
Details: BT-37 viability, CellTiter-Glo luminescence, 48 h; series mostly up to 57.3 µM
Inconclusive results are not listed. Active and inactive are the calls of the source. Calls follow the shape of the dose curve; as a rule, active = well fitted cell-killing curve with a large enough effect; inconclusive = small, poorly fitted or top-dose-only effect; inactive = flat fitted curve, though single readings scatter.
Please state which outcome applies, choosing from Yes (active), No (inactive)

Sample answers from the record:
CC[N+](CC)(CC)CCOc1cccc(OCC[N+](CC)(CC)CC)c1OCC[N+](CC)(CC)CC
No
CCOC(=O)Nc1ccc(NCc2ccc(F)cc2)nc1N
No
CN1CCC(=C2c3ccccc3CC(=O)c3sccc32)CC1
No
CCOC(=O)C(C)(C)Oc1ccc(Cl)cc1
No
CCN1CCCC1CNC(=O)c1cc(S(=O)(=O)CC)c(N)cc1OC (stereo not given)
No
CC(=O)OCC(CCn1cnc2cnc(N)nc21)COC(C)=O
No
O=C(CCCN1CCC(O)(c2ccc(Cl)cc2)CC1)c1ccc(F)cc1
No
CN1C2CCC1CC(OC(=O)C(CO)c1ccccc1)C2 (stereo not given)
No

Call for entry C[C@@H]1CC(=O)NN=C1c1ccc(NN=C(C#N)C#N)cc1 : No

How was O=C1N(c2ccccc2)c2ccccc2C1(Cc1ccncc1)Cc1ccncc1 classified in this test? No

What did this assay record as the result for CC1(CN2CCC(n3c(=O)[nH]c4ccccc43)CC2)OCc2ccccc2-n2cccc21 (stereo not given) ? No

Dear all, I need the recorded test outcome for Fc1ccc([C@@H]2CCNC[C@H]2COc2ccc3c(c2)OCO3)cc1 , thank you. No

Name the outcome recorded for Cc1cn([C@H]2C[C@H](N=[N+]=[N-])[C@@H](CO)O2)c(=O)[nH]c1=O in the assay. No

What call does the record list for COc1nc(C)nc(Cl)c1NC1=NCCN1 ? No

Dear colleague, could you share the recorded outcome for Nc1c2c(nc3ccccc13)CCCC2 when you have a moment? No

Please indicate how the test categorized CCCCc1oc2ccccc2c1C(=O)c1cc(I)c(OCCN(CC)CC)c(I)c1 . Yes
